Target: Neu5Ac(a2-3)Gal(b1-3)GalNAc(b1-4)[Neu5Ac(a2-3)]Gal(b1-4)Glc
Assay: glycan array binding signal (z-score within array); higher = stronger binding
Conditions: glycan notation: IUPAC condensed, linker removed
The sample as a whole holds a higher share of the strongest signals than the screen did.
Listed binders paired with reported glycan array binding signal (z-score)
quantity_measured: glycan array binding signal (z-score)

>>> readout_number("LlpB (Pseudomonas fluorescens) (protein) MGSSHHHHHHSSGLVPRGSHMASSGFRIILFNSANNGTAILPPRNCLVAGQYLESPSKRYKLILEADGNLRLYDNGVPIWVADSSVPYTYVDNRPNTNLVTCFYMQGSAFLVDRVGSRTWATIGDWIDGAADRAYLQVQDDGNVVVVDGVPRWARFGFTPAALPNRGVFYPDHGTGPLPSFPVWSWTF")
2.9
>>> readout_number("CD72 ectodomain (Homo sapiens), P21854 (protein) RYLQVSQQLQQTNRVLEVTNSSLRQQLRLKITQLGQSAEDLQGSRRELAQSQEALQVEQRAHQAAEGQLQACQADRQKTKETLQSEEQQRRALEQKLSNMENRLKPFFTCGSADTCCPSGWIMHQKSCFYISLTSKNWQESQKQCETLSSKLATFSEIYPQSHSYYFLNSLLPNGGSGNSYWTGLSSNKDWKLTDDTQRTRTYAQSSKCNKVHKTWSWWTLESESCRSSLPYICEMTAFRFPD")
-0.087
>>> readout_number("RsaA-N-term (Caulobacter crescentus), P35828 (protein) MAYTTAQLVTAYTNANLGKAPDAATTLTLDAYATQTQTGGLSDAAALTNTLKLVNSTTAVAIQTYQFFTGVAPSAAGLDFLVDSTTNTNDLNDAYYSKFAQENRFINFSINLATGAGAGATAFAAAYTGVSYAQTVATAYDKIIGNAVATAAGVDVAAAVAFLSRQANIDYLTAFVRANTPFTAAADIDLAVKAALIGTILNAATVSGIGGYATATAAMINDLSDGALSTDNAAGVNLFTAYPSSGVSGSTLSLTTGTDTLTGTANNDTFVAGEVAGDGSGWSHPQFEKGG")
-1.29
>>> readout_number("APVPVTKLVCDGDTYKCTAYLDFGDGRWVAQWDTNVFHTG [PhoSpL (Pholiota squarrosa)]")
0.143

Attribution: the supplement of paper PMC8728848
